tested on: RAW264.7 cells; assay: In vitro immunomodulatory activity: cytokine secretion by RAW264.7 cells (ELISA); assay type: cell-based, murine; details: 10 μg/mL, 12 h, 37°C, ELISA; three independent experiments

{"substance": "FKRIVQRIKDFLRRKDVT [LTPb, hybrid peptide combining LL-37b and TP5]", "IL-1β secretion": "remarkable increases"}
{"substance": "IGKEFKRIVQRIKDFLRNLVPRTERKDVT [LTPa, hybrid peptide combining LL-37a and TP5]", "IL-1β secretion": "remarkable increases"}
{"substance": "RKDVTIGKEFKRIVQRIKDFLRNL [TPLc, hybrid peptide combining TP5 and LL-37c]", "IL-1β secretion": "no significant increases"}
{"substance": "IGKEFKRIVQRIKDFLRNLRKDVT [LTPc, hybrid peptide combining LL-37c and TP5]", "IL-1β secretion": "remarkable increases"}
{"substance": "RKDVTIGKEFKRIVQRIKDFLRNLVPRTE [TPLa, hybrid peptide combining TP5 and LL-37a]", "IL-1β secretion": "no significant increases"}
{"substance": "RKDVT FKRIVQRIKDFLR [TPLb, hybrid peptide combining TP5 and LL-37b]", "IL-1β secretion": "no significant increases"}
